- assay_overview: yeast display, Sf9 membrane polyspecificity reagent, FACS + sequencing; frameworks hold sequencing errors
observation_type: polyreactivity (PSR sort gate)

Here are 5 sequences together with their reported answers.
// field: polyreactivity (PSR sort gate); key: `QVQLVESGGGLVQAGGSLRLSCAASGFTFSTNAMGWYRQAPGKERELVAAITWRGGSTYYADSVKGRFTISRDNAKNTVYLQMNSLKPEDTAVYYCARRSRGSHVSYYKKFDYWGQGTQVTVSS` ; value = low polyreactivity

// field: polyreactivity (PSR sort gate); key: `QVQLVESGGGLVQAGGSLRLSCAASGLIFNNNAMGWYRQAPGKERELVAAISYRGGSTYYADSVKGRFTISRDNAKNTVYLQMNSLKPEDTAVYYCAARKISKYDYWGQGTQVTVSS` ; value = high polyreactivity

// field: polyreactivity (PSR sort gate); key: `QVQLVESGGGLVQAGGSLRLSCAASGFTLKYYAMGWYRQAPGKERELVAAITSSGGSTYYADSVKGRFTISRDNAKNTVYLQMNSLKPEDTAVYYCNAVTVYKHGSWGQGTQVTVSS` ; value = high polyreactivity

// field: polyreactivity (PSR sort gate); key: `QVQLVESGGGLVQAGGSLRLSCSASGRIISFYVMGWYRQAPGKDRELVAAISLSGGSTYYADSVKGRFTISRDNAKNTVYLQMNSLKPEDTAVYYCAADQTLVGLPYNYWGQGTQLTVSS` ; value = high polyreactivity

// field: polyreactivity (PSR sort gate); key: `QVQLVESGGGLVQAGGSLRLSCAASGSNFVYNAMGWYRQAPGKERELVAAISGSGDSTYYADSVKGRFTISRDNAKNTVYLQMNSLKPEDTAVYYCAARMSTADFYKGDYWGQGTQVTVSS` ; value = low polyreactivity

---
// field: polyreactivity (PSR sort gate); key: `QVQHVESGGGLVQAGVSLRLSCAATGRIFGRYVMGWYRQAPGKETELVARIRRNVGSTYYADSVKGRFTISRDNAKYPVYLQMNSLKPEDTAVYYCAAESYDTWRRYESWGQGTQVTVSS` ; value = high polyreactivity

// field: polyreactivity (PSR sort gate); key: `QVQLVESGGGLVQAGGSLRLSCAASGRIFGRYAMGWYRQAPGKERELVAVISSGGSTYYADSVKGRFTISRDNAKNTVYLQMNSLKPEDTAVYYCAAVNRGGYDYWGQGTQVTVSS` ; value = low polyreactivity

// field: polyreactivity (PSR sort gate); key: `QVQLVESGGGLVQAGGSLRLSCAASGRTFFRYVMGWYRQAPGKERELVAAISRSGGSTYYADSVKGRFTISRDNAKITVYLQMNSLKPEDTAVYYCNTVARSTVVPTEFDYWGQGTQVTVSS` ; value = high polyreactivity

// field: polyreactivity (PSR sort gate); key: `QVQLVESGGGLVQAGGSLRLSCAASGSTFIYNTMGWYRQAPGKEREFVAAITQSGGDTYYADSVKGRFTISRDNAKNTVYLQMNSLKPEDTADYYCAAYWILNNFEMYYWGQGPQVTVSS` ; value = low polyreactivity

// field: polyreactivity (PSR sort gate); key: `QVQLVESGGDLVQAGGSLRLSCAASGRTFRYYAMGWYRLAPGKERELVAAISSSGDRTYYADSVKGRFTISRDTAKNTVYLQLNSLKPEDTAVYYCAADRGARGDYCGQGTQVTVSS` ; value = high polyreactivity
